I'd be grateful if you could share measured remaining at 0.5 h, 10 µM for these entries.
experiment: Metabolic stability in cynomolgus monkey intestine S9 fraction assessed as compound remaining at 10 uM after 30 mins by HPLC analysis in absence of NADP; format: ADME, tissue-based, Macaca fascicularis; settings: read-out: Stability
Answers are plain numbers, in %.

CC(C)[C@H](NP(=O)(OC[C@H]1O[C@@H](n2cnc3c(=O)[nH]c(N)nc32)[C@](C)(O)[C@@H]1O)Oc1cccc2ccccc12)C(=O)OCc1ccccc1 (some centres not stated)
77

Please find the next compound below.
Asked: Identify remaining at 0.5 h, 10 µM associated with the compound C[C@H](NP(=O)(OC[C@H]1O[C@@H](n2cnc3c(=O)[nH]c(N)nc32)[C@](C)(O)[C@@H]1O)Oc1cccc2ccccc12)C(=O)OCc1ccccc1 (some centres not stated)
Given back: 30
